assay: Absorption and emission spectra of dyes in different solvents; type: physicochemical; parameters: key: Stokes shift in nm; settings: Stokes shift to absorption peak 2; solvent DCM
REPORTED_PROPERTY: Δλ2
# print the numeric value only

>>> numeric_value("CCN1/C(=C/C=C/C(=C/C2=[N+](CC)c3ccccc3C2(C)C)Nc2ccccc2)C(C)(C)c2ccccc21 [Dye IIg]")
180
>>> numeric_value("CCN1/C(=C/C=C/C(=C/C2=[N+](CC)c3ccccc3C2(C)C)N(Cc2ccccc2)Cc2ccccc2)C(C)(C)c2ccccc21 [Dye IIf]")
162
>>> numeric_value("CCN(CC)C(=C\\C1=[N+](CC)c2ccccc2C1(C)C)/C=C/C=C1/N(CC)c2ccccc2C1(C)C [Dye IId]")
158
>>> numeric_value("CCN1/C(=C/C=C/C(=C/C2=[N+](CC)c3ccccc3C2(C)C)NCc2ccccc2)C(C)(C)c2ccccc21 [Dye IIe]")
185
>>> numeric_value("CCN1/C(=C/C=C/C(=C/C2=[N+](CC)c3ccccc3C2(C)C)N(CCO)CCO)C(C)(C)c2ccccc21 [Dye IIc]")
168
>>> numeric_value("CCN1/C(=C/C=C/C(N)=C/C2=[N+](CC)c3ccccc3C2(C)C)C(C)(C)c2ccccc21 [Dye IIa]")
191

// below: Δλ2 requested for another compound
Entry under review: CCN1/C(=C/C=C/C(=C/C2=[N+](CC)c3ccccc3C2(C)C)NCCO)C(C)(C)c2ccccc21 [Dye IIb] . Reported Δλ2?
167
